# target.entity: HLA-A2.1 molecules expressed by 174CEM.T2 cells (human)
# assay.text: T2 HLA-A2.1 stabilisation, flow cytometry (BB7.2), peptide 200 ug/ml
measurement.label: FI (Fluorescence Index)

binder	measurement.label	result
LSFVCPWCA (modifications not checked) [… (residues 94-102 of HPV18 protein E7)]	FI (Fluorescence Index)	0.9
DTLEKLTNT (modifications not checked) [… (residues 88-96 of HPV18 protein E6)]	FI (Fluorescence Index)	0.7
SLQDIEITC (modifications not checked) [… (residues 24-32 of HPV18 protein E6)]	FI (Fluorescence Index)	0.7
YMLDLQPET (modifications not checked) [… (residues 11-19 of HPV16 protein E7)]	FI (Fluorescence Index)	3.3
LFLNTLSFV (modifications not checked) [… (residues 89-97 of HPV18 protein E7)]	FI (Fluorescence Index)	1.6
IHDIILECV (modifications not checked) [… (residues 30-38 of HPV16 protein E6)]	FI (Fluorescence Index)	1.3
QLFLNTLSF (modifications not checked) [… (residues 88-96 of HPV18 protein E7)]	FI (Fluorescence Index)	0.8
KTVLELTEV (modifications not checked) [… (residues 36-44 of HPV18 protein E6)]	FI (Fluorescence Index)	2.3
RLCVQSTHV (modifications not checked) [… (residues 66-74 of HPV16 protein E7)]	FI (Fluorescence Index)	2.8
FAFKDLFVV (modifications not checked) [… (residues 47-55 of HPV18 protein E6)]	FI (Fluorescence Index)	2.3
FQQLFLNTL (modifications not checked) [… (residues 86-94 of HPV18 protein E7)]	FI (Fluorescence Index)	0.8
